Data credit: PubChem BioAssay AID1963835

# Test system: 699152-130-R-J1-PDC complex spheroid viability
# assay.protocol: Anticancer human tumor 699152-130-R-J1-PDC patient-derived pancreatic carcinoma cell line growth inhibition [POLQ]
# test.parameters: second compound 0.1 µM; first compound 0.01 µM; stronger effect = lower value
Recorded viability, T/C values for a group of compounds are listed next.
Number only, in %; omit the unit.

Some compounds with known viability, T/C results, for comparison:
compound	recorded.endpoint	readout.unit	numeric.value
CCc1c2c(nc3ccc(O)cc13)-c1cc3c(c(=O)n1C2)COC(=O)[C@]3(O)CC + COC1C(OC(N)=O)C(O)C(Oc2ccc3c(O)c(NC(=O)c4ccc(O)c(CC=C(C)C)c4)c(=O)oc3c2C)OC1(C)C	viability, T/C	%	49.5
Cn1ncnc1[C@H]1c2n[nH]c(=O)c3cc(F)cc(c23)N[C@@H]1c1ccc(F)cc1 + Cc1cccc(N(C)C(=O)C2C(O)CCN2c2nc(C)cc(C(F)(F)F)c2C#N)c1	viability, T/C	%	99.3

Reported viability, T/C, compound COc1cccc(OCCCN)c1-c1cc(Nc2cnc(C#N)cn2)n[nH]1 + Nc1ccc(C#CCN(C(=O)Cc2ncc(C(F)(F)F)cc2C(F)(F)F)c2ccc(F)cc2)nn1 : ____
101

Reported viability, T/C, compound Cn1ncnc1[C@H]1c2n[nH]c(=O)c3cc(F)cc(c23)N[C@@H]1c1ccc(F)cc1 + Nc1ccc(C#CCN(C(=O)Cc2ncc(C(F)(F)F)cc2C(F)(F)F)c2ccc(F)cc2)nn1 : ____
101

Reported viability, T/C, compound COc1cccc(OCCCN)c1-c1cc(Nc2cnc(C#N)cn2)n[nH]1 + COC1C(OC(N)=O)C(O)C(Oc2ccc3c(O)c(NC(=O)c4ccc(O)c(CC=C(C)C)c4)c(=O)oc3c2C)OC1(C)C : ____
89.2

----------
Recorded viability, T/C values for a group of compounds are listed next.
# Test system: 699152-130-R-J1-PDC complex spheroid viability
# assay.protocol: Anticancer human tumor 699152-130-R-J1-PDC cell line growth inhibition [POLQ];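 further: spheroids exposed to agents for 7 days before viability reading; percent of DMSO vehicle control viability so 100% = vehicle and 0% = no viable signal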
# test.parameters: second compound 10 µM; first compound 10 µM; stronger effect = lower value
Number only, in %; omit the unit.

Some compounds with known viability, T/C results, for comparison:
compound	readout.unit	viability, T/C
COc1cc2cc(C(=O)CCC(=O)O)sc2cc1OC + COC1C(OC(N)=O)C(O)C(Oc2ccc3c(O)c(NC(=O)c4ccc(O)c(CC=C(C)C)c4)c(=O)oc3c2C)OC1(C)C	%	106
O=c1[nH]cc(F)c(=O)[nH]1 + COC1C(OC(N)=O)C(O)C(Oc2ccc3c(O)c(NC(=O)c4ccc(O)c(CC=C(C)C)c4)c(=O)oc3c2C)OC1(C)C	%	73
COc1cc2cc(C(=O)CCC(=O)O)sc2cc1OC + Cc1cccc(N(C)C(=O)C2C(O)CCN2c2nc(C)cc(C(F)(F)F)c2C#N)c1	%	103
CCc1cc2c(N3CCc4c(cc(Cn5ccnc5)cc4-c4cn(C)nc4C(F)(F)F)C3=O)ccnc2c(OC)n1 + Nc1ccc(C#CCN(C(=O)Cc2ncc(C(F)(F)F)cc2C(F)(F)F)c2ccc(F)cc2)nn1	%	110
CCCS(=O)(=O)Nc1ccc(F)c(C(=O)c2c[nH]c3ncc(-c4ccc(Cl)cc4)cc23)c1F + Nc1ccc(C#CCN(C(=O)Cc2ncc(C(F)(F)F)cc2C(F)(F)F)c2ccc(F)cc2)nn1	%	52.9
CC(C)n1c(=O)n(C)c2cnc3cc(F)c(-c4ccc(OCCCN5CCCCC5)nc4)cc3c21 + COC1C(OC(N)=O)C(O)C(Oc2ccc3c(O)c(NC(=O)c4ccc(O)c(CC=C(C)C)c4)c(=O)oc3c2C)OC1(C)C	%	37.5
CCc1cc2c(N3CCc4c(cc(Cn5ccnc5)cc4-c4cn(C)nc4C(F)(F)F)C3=O)ccnc2c(OC)n1 + Cc1cccc(N(C)C(=O)C2C(O)CCN2c2nc(C)cc(C(F)(F)F)c2C#N)c1	%	95.5
CC1COCCN1c1cc(C2(S(C)(=N)=O)CC2)nc(-c2ccnc3[nH]ccc23)n1 (stereo not given) + Cc1cccc(N(C)C(=O)C2C(O)CCN2c2nc(C)cc(C(F)(F)F)c2C#N)c1	%	69.8

Reported viability, T/C, compound Nc1ccn(C2OC(CO)C(O)C2(F)F)c(=O)n1 (stereo not given) + Cc1cccc(N(C)C(=O)C2C(O)CCN2c2nc(C)cc(C(F)(F)F)c2C#N)c1 : ____
42.6

Reported viability, T/C, compound C=CC(=O)N1CCN(c2nc(=O)n(-c3c(C)ccnc3C(C)C)c3nc(-c4c(O)cccc4F)c(F)cc23)C(C)C1 (stereo not given) + Cc1cccc(N(C)C(=O)C2C(O)CCN2c2nc(C)cc(C(F)(F)F)c2C#N)c1 : ____
119

----------
# System: 699152-130-R-J1-PDC complex spheroid viability
# assay.protocol: Anticancer human tumor 699152-130-R-J1-PDC cell line growth inhibition [POLQ];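 further: spheroids exposed to agents for 7 days before viability reading; percent of DMSO vehicle control viability so 100% = vehicle and 0% = no viable signal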
# test.parameters: second compound 0.0316 µM; first compound 0.316 µM; stronger effect = lower value
# Method: Multicellular complex tumor spheroid response to Polymerase (POL) inhibitors (novobiocin, ART-558, RP6685) in combination with a variety of drugs and investigational agents in selected tumor cell lines The POL inhibitors (novobiocin, ART-558, and RP6685) were evaluated both individually and in combination with standard of care and investigational anticancer small molecules within a complex spheroid model of solid tumors. . […]
Recorded viability, T/C values for a group of compounds are listed next.
Number only, in %; omit the unit.

compound	recorded.endpoint	numeric.value
C#Cc1c(F)ccc2cc(O)cc(-c3ncc4c(N5CC6CCC(C5)N6)nc(OCC56CCCN5CC(F)C6)nc4c3F)c12 (configuration not stated) + Cc1cccc(N(C)C(=O)C2C(O)CCN2c2nc(C)cc(C(F)(F)F)c2C#N)c1	viability, T/C	22.6

Reported viability, T/C, compound C=CC(=O)N1CCN(c2nc(=O)n(-c3c(C)ccnc3C(C)C)c3nc(-c4c(O)cccc4F)c(F)cc23)C(C)C1 (configuration not stated) + Nc1ccc(C#CCN(C(=O)Cc2ncc(C(F)(F)F)cc2C(F)(F)F)c2ccc(F)cc2)nn1 : ____
102

Reported viability, T/C, compound CC1COCCN1c1cc(-c2ccnn2C)c2ccnc(-c3ccn[nH]3)c2n1 (configuration not stated) + Cc1cccc(N(C)C(=O)C2C(O)CCN2c2nc(C)cc(C(F)(F)F)c2C#N)c1 : ____
74.4

Reported viability, T/C, compound COc1cccc(OCCCN)c1-c1cc(Nc2cnc(C#N)cn2)n[nH]1 + COC1C(OC(N)=O)C(O)C(Oc2ccc3c(O)c(NC(=O)c4ccc(O)c(CC=C(C)C)c4)c(=O)oc3c2C)OC1(C)C : ____
49.7

Reported viability, T/C, compound CCc1cc2c(N3CCc4c(cc(Cn5ccnc5)cc4-c4cn(C)nc4C(F)(F)F)C3=O)cc(C)nc2c(OC)n1 + Cc1cccc(N(C)C(=O)C2C(O)CCN2c2nc(C)cc(C(F)(F)F)c2C#N)c1 : ____
89.3

Reported viability, T/C, compound CC(C)n1c(=O)n(C)c2cnc3cc(F)c(-c4ccc(OCCCN5CCCCC5)nc4)cc3c21 + Cc1cccc(N(C)C(=O)C2C(O)CCN2c2nc(C)cc(C(F)(F)F)c2C#N)c1 : ____
100

Reported viability, T/C, compound COc1cc2cc(C(=O)CCC(=O)O)sc2cc1OC + COC1C(OC(N)=O)C(O)C(Oc2ccc3c(O)c(NC(=O)c4ccc(O)c(CC=C(C)C)c4)c(=O)oc3c2C)OC1(C)C : ____
97.1

----------
# System: 699152-130-R-J1-PDC complex spheroid viability
# assay.protocol: Anticancer human tumor 699152-130-R-J1-PDC cell line growth inhibition [POLQ];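 further: spheroids exposed to agents for 7 days before viability reading; percent of DMSO vehicle control viability so 100% = vehicle and 0% = no viable signal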
# test.parameters: second compound 0.0316 µM; first compound 10 µM; stronger effect = lower value
recorded.endpoint: viability, T/C (%)
Number only, in %; omit the unit.

compound	viability, T/C [%]
C=CC(=O)N1CCN(c2nc(=O)n(-c3c(C)ccnc3C(C)C)c3nc(-c4c(O)cccc4F)c(F)cc23)C(C)C1 (stereo unspecified) + Nc1ccc(C#CCN(C(=O)Cc2ncc(C(F)(F)F)cc2C(F)(F)F)c2ccc(F)cc2)nn1	103

Reported viability, T/C, compound COc1ccc([C@@H](O)c2cc(-c3ncnc4cc(N5CCOCC5)ccc34)c(F)cc2Cl)nn1 + COC1C(OC(N)=O)C(O)C(Oc2ccc3c(O)c(NC(=O)c4ccc(O)c(CC=C(C)C)c4)c(=O)oc3c2C)OC1(C)C : ____
26.3

Reported viability, T/C, compound O=c1[nH]cc(F)c(=O)[nH]1 + Cc1cccc(N(C)C(=O)C2C(O)CCN2c2nc(C)cc(C(F)(F)F)c2C#N)c1 : ____
74.1

Reported viability, T/C, compound CCc1cc2c(N3CCc4c(cc(Cn5ccnc5)cc4-c4cn(C)nc4C(F)(F)F)C3=O)ccnc2c(OC)n1 + Nc1ccc(C#CCN(C(=O)Cc2ncc(C(F)(F)F)cc2C(F)(F)F)c2ccc(F)cc2)nn1 : ____
99.6

Reported viability, T/C, compound CC1COCCN1c1cc(-c2ccnn2C)c2ccnc(-c3ccn[nH]3)c2n1 (stereo unspecified) + Cc1cccc(N(C)C(=O)C2C(O)CCN2c2nc(C)cc(C(F)(F)F)c2C#N)c1 : ____
45.4

Reported viability, T/C, compound CC(C)n1c(=O)n(C)c2cnc3cc(F)c(-c4ccc(OCCCN5CCCCC5)nc4)cc3c21 + Nc1ccc(C#CCN(C(=O)Cc2ncc(C(F)(F)F)cc2C(F)(F)F)c2ccc(F)cc2)nn1 : ____
96.8

Reported viability, T/C, compound Nc1ccn(C2OC(CO)C(O)C2(F)F)c(=O)n1 (stereo unspecified) + Cc1cccc(N(C)C(=O)C2C(O)CCN2c2nc(C)cc(C(F)(F)F)c2C#N)c1 : ____
39

Reported viability, T/C, compound CCc1cc2c(N3CCc4c(cc(Cn5ccnc5)cc4-c4cn(C)nc4C(F)(F)F)C3=O)ccnc2c(OC)n1 + Cc1cccc(N(C)C(=O)C2C(O)CCN2c2nc(C)cc(C(F)(F)F)c2C#N)c1 : ____
95

Reported viability, T/C, compound COc1cc(C2c3cc4c(cc3C(OC3OC5COC(C)OC5C(O)C3O)C3COC(=O)C23)OCO4)cc(OC)c1O (stereo unspecified) + COC1C(OC(N)=O)C(O)C(Oc2ccc3c(O)c(NC(=O)c4ccc(O)c(CC=C(C)C)c4)c(=O)oc3c2C)OC1(C)C : ____
40.2

Reported viability, T/C, compound O=C(c1cc(Cc2n[nH]c(=O)c3ccccc23)ccc1F)N1CCN(C(=O)C2CC2)CC1 + Nc1ccc(C#CCN(C(=O)Cc2ncc(C(F)(F)F)cc2C(F)(F)F)c2ccc(F)cc2)nn1 : ____
93.2

Reported viability, T/C, compound CC1COCCN1c1cc(C2(S(C)(=N)=O)CC2)nc(-c2ccnc3[nH]ccc23)n1 (stereo unspecified) + Nc1ccc(C#CCN(C(=O)Cc2ncc(C(F)(F)F)cc2C(F)(F)F)c2ccc(F)cc2)nn1 : ____
68.9
